Answer each item with its documented helicity.
Assay: circular dichroism
Settings: 5 mM sodium phosphate; pH 7.5; 20 °C; 7.5 uM
Bridge positions count the residues as written; N and C are the ends. Square brackets hold non-standard residues; d marks the D form. Peptide text beside a SMILES is read from it. R8 = C=CCCCCCC[C@@](C)(N)C(=O)O; S5 = C=CCCC[C@](C)(N)C(=O)O
One number for each entry, in %.

{"COMPOUND": "CC(C)C[C@H](NC(=O)[C@H](Cc1c[nH]c2ccccc12)NC(=O)[C@H](CCCNC(=N)N)NC(=O)[C@H](CC(C)C)NC(=O)[C@]1(C)CCCC=CCCC[C@](C)(NC(=O)[C@H](CCCNC(=N)N)NC(=O)[C@@H](N)CCCNC(=N)N)C(=O)N[C@@H](Cc2ccccc2)C(=O)N[C@@H](CCCNC(=N)N)C(=O)N[C@@H](CCCNC(=N)N)C(=O)N1)C(N)=O [Peptide L6S1] (H-RR[S5]FRR[S5]LRWL-NH2; staple 3-7)", "helicity, %": 28}

Could you tell me helicity for each of these compounds? They are listed below.
1. CC[C@H](C)[C@@H]1NC(=O)[C@H](CCCNC(=N)N)NC(=O)[C@H](CCC(N)=O)NC(=O)[C@](C)(NC(=O)[C@@H](NC(=O)[C@H](CCCNC(=N)N)NC(=O)[C@@H](N)CCCCN)[C@@H](C)CC)CCCCCCC=CCCC[C@@](C)(C(=O)N[C@@H](CCCNC(=N)N)C(N)=O)NC(=O)[C@H](Cc2c[nH]c3ccccc23)NC(=O)[C@H](CCCCN)NC(=O)[C@H](CCCCN)NC1=O [Peptide L8S3] (H-KRI[R8]QRIKKW[S5]R-NH2; staple 4-11)
2. CC[C@H](C)[C@@H]1NC(=O)[C@H](CCCNC(=N)N)NC(=O)[C@H](CCCNC(=N)N)NC(=O)[C@](C)(NC(=O)[C@H](CC(C)C)NC(=O)[C@H](CCCNC(=N)N)NC(=O)[C@@H](N)CCCNC(=N)N)CCCCCCC=CCCC[C@@](C)(C(N)=O)NC(=O)[C@H](Cc2c[nH]c3ccccc23)NC(=O)[C@H](CCCNC(=N)N)NC(=O)[C@H](CC(C)C)NC1=O [Peptide L6S3] (H-RRL[R8]RRILRW[S5]-NH2; staple 4-11)

Given back:
[25, 23]

----------
Tested on: zebrafish larvae
Test: Toxicity in zebrafish larvae (survival after caudal vein injection)
Conditions: survival of uninfected larvae vs vehicle (50% DMSO), five days
Bridge positions count the residues as written; N and C are the ends. Square brackets hold non-standard residues; d marks the D form. Peptide text beside a SMILES is read from it. R8 = C=CCCCCCC[C@@](C)(N)C(=O)O; S5 = C=CCCC[C@](C)(N)C(=O)O
Answer each item with its documented Log2FoldChange compared to vehicle injected.
Answers are plain numbers.

Could you tell me Log2FoldChange compared to vehicle injected for each of these compounds? They are listed below.
1. CC[C@H](C)[C@@H]1NC(=O)[C@H](CCCNC(=N)N)NC(=O)[C@H](CCC(N)=O)NC(=O)[C@](C)(NC(=O)[C@@H](NC(=O)[C@H](CCCNC(=N)N)NC(=O)[C@@H](N)CCCCN)[C@@H](C)CC)CCCCCCC=CCCC[C@@](C)(C(=O)N[C@@H](CCCNC(=N)N)C(N)=O)NC(=O)[C@H](Cc2c[nH]c3ccccc23)NC(=O)[C@H](CCCCN)NC(=O)[C@H](CCCCN)NC1=O [Peptide L8S3] (H-KRI[R8]QRIKKW[S5]R-NH2; staple 4-11)
2. CC(C)C[C@H](NC(=O)[C@H](CCCNC(=N)N)NC(=O)[C@@H](N)CCCNC(=N)N)C(=O)N[C@@H](Cc1ccccc1)C(=O)N[C@@H](CCCNC(=N)N)C(=O)N[C@@H](CCCNC(=N)N)C(=O)N[C@@]1(C)CCCC=CCCC[C@@](C)(C(N)=O)NC(=O)[C@H](Cc2c[nH]c3ccccc23)NC(=O)[C@H](CCCNC(=N)N)NC(=O)[C@H](CC(C)C)NC1=O [Peptide L6S2] (H-RRLFRR[S5]LRW[S5]-NH2; staple 7-11)
3. CC[C@H](C)[C@@H]1NC(=O)[C@H](CCCNC(=N)N)NC(=O)[C@H](CCCNC(=N)N)NC(=O)[C@](C)(NC(=O)[C@H](CC(C)C)NC(=O)[C@H](CCCNC(=N)N)NC(=O)[C@@H](N)CCCNC(=N)N)CCCCCCC=CCCC[C@@](C)(C(N)=O)NC(=O)[C@H](Cc2c[nH]c3ccccc23)NC(=O)[C@H](CCCNC(=N)N)NC(=O)[C@H](CC(C)C)NC1=O [Peptide L6S3] (H-RRL[R8]RRILRW[S5]-NH2; staple 4-11)
4. CC(C)C[C@H](NC(=O)[C@H](Cc1c[nH]c2ccccc12)NC(=O)[C@H](CCCNC(=N)N)NC(=O)[C@H](CC(C)C)NC(=O)[C@]1(C)CCCC=CCCC[C@](C)(NC(=O)[C@H](CCCNC(=N)N)NC(=O)[C@@H](N)CCCNC(=N)N)C(=O)N[C@@H](Cc2ccccc2)C(=O)N[C@@H](CCCNC(=N)N)C(=O)N[C@@H](CCCNC(=N)N)C(=O)N1)C(N)=O [Peptide L6S1] (H-RR[S5]FRR[S5]LRWL-NH2; staple 3-7)
5. CN[C@H](CC(C)C)C(=O)N[C@H]1C(=O)N[C@@H](CC(N)=O)C(=O)N[C@H]2C(=O)N[C@H]3C(=O)N[C@H](C(=O)N[C@H](C(=O)O)c4cc(O)cc(O)c4-c4cc3ccc4O)[C@H](O)c3ccc(c(Cl)c3)Oc3cc2cc(c3O[C@@H]2O[C@H](CO)[C@@H](O)[C@H](O)[C@H]2O[C@H]2C[C@](C)(N)[C@H](O)[C@H](C)O2)Oc2ccc(cc2Cl)[C@H]1O
6. CC(C)C[C@H](NC(=O)[C@H](Cc1c[nH]c2ccccc12)NC(=O)[C@H](CCCCN)NC(=O)[C@H](CCCCN)NC(=O)[C@]1(C)CCCC=CCCC[C@](C)(NC(=O)[C@H](CCCNC(=N)N)NC(=O)[C@@H](N)CCCCN)C(=O)N[C@@H](C(C)C)C(=O)N[C@@H](CCC(N)=O)C(=O)N[C@@H](CCCNC(=N)N)C(=O)N1)C(=O)N[C@@H](CCCNC(=N)N)C(N)=O [Peptide L8S1] (H-KR[S5]VQR[S5]KKWLR-NH2; staple 3-7)
7. CC[C@H](C)[C@H](NC(=O)[C@H](CCCNC(=N)N)NC(=O)[C@@H](N)CCCCN)C(=O)N[C@H](C(=O)N[C@@H](CCC(N)=O)C(=O)N[C@@H](CCCNC(=N)N)C(=O)N[C@@]1(C)CCCC=CCCC[C@@](C)(C(=O)N[C@@H](CCCNC(=N)N)C(N)=O)NC(=O)[C@H](Cc2c[nH]c3ccccc23)NC(=O)[C@H](CCCCN)NC(=O)[C@H](CCCCN)NC1=O)C(C)C [Peptide L8S2] (H-KRIVQR[S5]KKW[S5]R-NH2; staple 7-11)

Given back:
[-0.08, -1.21, -0.40, 0.04, -0.26, -0.45, 0.11]

----------
Answer each item with its documented helicity.
Experiment: circular dichroism
Details: 5 mM sodium phosphate; pH 7.5; 20 °C; 7.5 uM
Bridge positions count the residues as written; N and C are the ends. Square brackets hold non-standard residues; d marks the D form. Peptide text beside a SMILES is read from it. S5 = C=CCCC[C@](C)(N)C(=O)O
One number for each entry, in %.

Use these answered entries as a reference point.
{"MOLECULE": "CC(C)C[C@H](NC(=O)[C@H](Cc1c[nH]c2ccccc12)NC(=O)[C@H](CCCCN)NC(=O)[C@H](CCCCN)NC(=O)[C@]1(C)CCCC=CCCC[C@](C)(NC(=O)[C@H](CCCNC(=N)N)NC(=O)[C@@H](N)CCCCN)C(=O)N[C@@H](C(C)C)C(=O)N[C@@H](CCC(N)=O)C(=O)N[C@@H](CCCNC(=N)N)C(=O)N1)C(=O)N[C@@H](CCCNC(=N)N)C(N)=O [Peptide L8S1] (H-KR[S5]VQR[S5]KKWLR-NH2; staple 3-7)", "UNIT_ANNOTATION": "%", "helicity": 49}
{"MOLECULE": "CC[C@H](C)[C@H](NC(=O)[C@H](CCCNC(=N)N)NC(=O)[C@@H](N)CCCCN)C(=O)N[C@H](C(=O)N[C@@H](CCC(N)=O)C(=O)N[C@@H](CCCNC(=N)N)C(=O)N[C@@]1(C)CCCC=CCCC[C@@](C)(C(=O)N[C@@H](CCCNC(=N)N)C(N)=O)NC(=O)[C@H](Cc2c[nH]c3ccccc23)NC(=O)[C@H](CCCCN)NC(=O)[C@H](CCCCN)NC1=O)C(C)C [Peptide L8S2] (H-KRIVQR[S5]KKW[S5]R-NH2; staple 7-11)", "UNIT_ANNOTATION": "%", "helicity": 25}

Turning now to a further record.
Asked: Item CC(C)C[C@H](NC(=O)[C@H](CCCNC(=N)N)NC(=O)[C@@H](N)CCCNC(=N)N)C(=O)N[C@@H](Cc1ccccc1)C(=O)N[C@@H](CCCNC(=N)N)C(=O)N[C@@H](CCCNC(=N)N)C(=O)N[C@@]1(C)CCCC=CCCC[C@@](C)(C(N)=O)NC(=O)[C@H](Cc2c[nH]c3ccccc23)NC(=O)[C@H](CCCNC(=N)N)NC(=O)[C@H](CC(C)C)NC1=O [Peptide L6S2] (H-RRLFRR[S5]LRW[S5]-NH2; staple 7-11) has what recorded helicity?
Given back: 19
